The measurements presented in this section are drawn from the supplement of paper PMC6555819.

Parameter PBM binding z-score: see the listing below.
Test system: FXR:RXRa (NR concentration 270 nM, RXRa partner concentration 90 nM)
Experiment: PBM binding z-score (relative to random genomic background probes); higher = stronger binding; sequences stand for … in GC…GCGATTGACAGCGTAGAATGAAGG

Use these answered entries as a reference point.
• GCTGCTCGGTCAACTGATGGTCAGCTAAAGCTCG = 0.704
• CGTCCAAGGTCAGCAGGTCACTGAAAGCGACGTG = 6.56
• GATACAGGGTCAAGGCCAGAGTACGCGTATTGAT = 6.67
• CCTTACGGGTCAGGAGGTTATAGCACGACGAGCG = 4.11
• CTATGTAGGTTAAGCGGGTCATTCAGTTTGAAAG = 2.56

Could you tell me which PBM binding z-score is on file for ATATGTAGGTTAGGGTTATTCAGAAAGTAGGGAA ?
2.3

Moving on to ATATGTAGGTTACATGCGGGTCATTCAGGCTATG
2.21

Moving on to TCTAGTTGGTTACGGAGGTCACACACGACGGGTA
2.67

Moving on to CCTACTGGGCCAAAAAGGCCATTGATGCCGATAA
-0.133

Moving on to CGTCCAAGGTCAAAGGTCAGTAAAGAGATGACGG
8.12

Moving on to CAAACTAGGTCAAAGGACAGTGAAAGGCGACGTA
3.9

Moving on to GATACAGGGTCATCTAGAGGCCAGAGTATGGAAA
6.84

Moving on to CTATGTAGGTTAAGGGTGTCATTCAGTTTGAAAG
0.954

* * *

Test system: PPARg:RXRa 270nM:90nM, anti-RXR (NR concentration 270 nM, RXRa partner concentration 90 nM)
Test: PBM binding z-score (relative to random genomic background probes); higher = stronger binding; sequences stand for … in GC…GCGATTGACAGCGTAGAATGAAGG
Parameter PBM binding z-score: see the listing below.
# answer = number (no unit)

• TAGCCTAGGACATGCGGGCCAGTATAGTGTCGGC = -0.867
• CGTCTAAGGTCAGCAGGTCAGTGAAAGCGACGTG = 5.46

Let's switch to this sequence now.
Could you tell me which PBM binding z-score is on file for CGAACTAGCTCAAGGACAGTGAATCTCCGCACGC ?
-0.53

* * *

System: PPARg:RXRa IVT, anti-PPARg (NR concentration 270 nM, RXRa partner concentration 90 nM)
Test: PBM binding z-score (relative to random genomic background probes); higher = stronger binding; sequences stand for … in GC…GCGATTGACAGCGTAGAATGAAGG
quantity: PBM binding z-score
# answer = number (no unit)

Use these answered entries as a reference point.
• CGAACTAGGTCACCACGACAGTGAAGAGGTTGGA = 9
• CGAACTAAGTCACCAGGACAGTGAAGAGGTTGGA = 1.61
• ATCGAAAGGGCGTGAGGTGAGTATACAGAAAGGC = 1.02
• CCGAGTAGGTTACGAGCGGGCATTCAGTGCGAAT = 2.97
• CGAACTAGGTCACCAGGACAGTCAAGAGGTTGGA = 8.73
• CCTACTGGGCCATTCAGAGGTCACTGATCATATG = 4.67

Could you tell me which PBM binding z-score is on file for GCTTACGGGTCAAAGGTTATGGCATGAATAGAAT ?
5.79

Moving on to ATATGCAGGTTATCGGGTCATTCAGTTTGCGCAT
5.2

Moving on to CCTAGCCGGCCAATCTGGGTCACTCAAGGCTTGA
4.68

Moving on to CAGCCTAGTTCAGGGCCAGTATAGGAGGAACGTT
-0.592

* * *

Test system: THRa:RXRa (NR concentration 90 nM, RXRa partner concentration 90 nM)
Assay: PBM binding z-score (relative to random genomic background probes); higher = stronger binding; sequences stand for … in GC…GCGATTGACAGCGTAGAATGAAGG
quantity: PBM binding z-score
# answer = number (no unit)

* CGAACTAGGTCACCAGGAAAGTGAAGAGGTTGGA | 2.91
* CGAACTAGGTCACCAGGACGGTGAAGAGGTTGGA | 3.04
* ATATGTAGGTAAGGGTCATTCAGAAAGTAGGGAA | 3.01

Let's switch to this sequence now.
Look up PBM binding z-score with THRa:RXRa (NR concentration 90 nM, RXRa partner concentration 90 nM) for this sequence: CGAACTAGGTCACCAGGAGAGTGAAGAGGTTGGA
2.98

* * *

Tested on: LXRa homodimer (NR concentration 270 nM)
Test: PBM binding z-score (relative to random genomic background probes); higher = stronger binding; sequences stand for … in GC…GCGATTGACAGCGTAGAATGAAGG
Parameter PBM binding z-score: see the listing below.
# answer = number (no unit)

Could you tell me which PBM binding z-score is on file for AGTCAAAGTTCATCTTGGTAACGTAAGATATGCT ?
5.97

Moving on to CTATGTAGGTTAACGGGGTCATTCAGTTTGAAAG
2.97

Moving on to ATCGAACGGTCGACGAGGTGAGTATACACCGTTT
-0.327

Moving on to CCTTACGGGTCACGGTTATAGCACGGGTGGTACG
0.000447

Moving on to CAAACCAGGTCACGAAAGGTCAAAGTCGAATGAC
8.63

Moving on to CGTCCAAGGTCCATGCTAGGTCAGTGAAAGCATT
0.25

* * *

Test system: PPARa:RXRa (NR concentration 270 nM, RXRa partner concentration 90 nM)
Experiment: PBM binding z-score (relative to random genomic background probes); higher = stronger binding; sequences stand for … in GC…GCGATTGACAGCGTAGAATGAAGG
Use 6 as the dividing line for PBM binding z-score, with the line itself on the T side and lower values as F.

Record excerpt, results attached:
- AATACAGGGTCGCTAGGCCAGAGTAGGTACGAAT: F
- TCGAGTAGGTTACGGGGCCATTCAGGGATGAAGA: F
- CGAACTAAGTCATTGACAGGACAGTGAATAGTAA: F
- CTATGTAGGTTGAGGGGGTCATTCAGTTTGAAAG: F
- CGTCCAAGGTCAAAGGTCACTGAAGAGATGACGG: T
- CGTCCGAGGTCAAAGGTCAGTGAAGAGATGACGG: T
- CGAACTAGGTGATTGACAGGACAGTGAATAGTAA: F

From here, focus on the item given below.
Threshold query (PBM binding z-score >= 6) on CGAACTAGGTCACCAGGTCAGTGAAGAGGTTGGA
F

* * *

System: PPARg:RXRa 90nM:30nM, anti-RXR (NR concentration 90 nM, RXRa partner concentration 30 nM)
Assay: PBM binding z-score (relative to random genomic background probes); higher = stronger binding; sequences stand for … in GC…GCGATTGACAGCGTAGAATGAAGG
Use 6 as the dividing line for PBM binding z-score, with the line itself on the Y side and lower values as N.

• CTATGTAGATTAAGGGGGTCATTCAGTTTGAAAG = N
• CTATGTAGGTTAAGGGGGTCATTAAGTTTGAAAG = Y
• CTATCTAGGTTAAGGGGGTCATTCAGTTTGAAAG = Y
• CGAACTAGGTCACCAGGACAGCGAAGAGGTTGGA = Y
• CGTCCAAGGTCAATGCTAGGTCACTGAAAGCATT = N
• CCGAGTAGGTTACGAAGGGGCATTCAGTGCGAAT = N

From here, focus on the item given below.
Threshold query (PBM binding z-score >= 6) on TAGCCTCGGTCATTCAGGGGCCAGTATAGAAAGC
N

* * *

Parameter PBM binding z-score: see the listing below.
Tested on: PPARg:RXRa 270nM:90nM, anti-RXR (NR concentration 270 nM, RXRa partner concentration 90 nM)
Experiment: PBM binding z-score (relative to random genomic background probes); higher = stronger binding; sequences stand for … in GC…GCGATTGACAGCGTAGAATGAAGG
# answer = number (no unit)

Use these answered entries as a reference point.
- CCTACTGGGCCAAAGGTCTTTGATTCCAATGCTC: 8.59
- GATAGTTGGTCAGTAAAAGGTCACACACCGGTCG: 4.68
- CTCGAAAGGGCGTGCTCAGGTGAGTATACCAAAC: 0.0309
- AGTCAAAGTTCACTAGGTTACGTAAGATTCAGCT: 6.74
- CGTCCAACGTCAGCAGGTCAGTGAAAGCGACGTG: -0.476

Could you tell me which PBM binding z-score is on file for ACTAGTGGGTCAGCTGAGGTCACACACAATTCGG ?
5.68

Moving on to CTTACTGGGCCAAAGGTCATTGATTCCAATGCTC
11.2

Moving on to ATATGTAGGTTAGGGTCATTCAAAAAGTAGGGAA
7.02

Moving on to CGTCCAAGGTCAAGCTCAGTGAAAGAGACTCGAA
5.77

Moving on to CGAACTAGGTCACCAGGGCAGTGAAGAGGTTGGA
6.86

Moving on to TTACGAAGGTGAAAGGTCGTTGATGCACGCCTTG
7.35

Moving on to CGAACTAGGTAACCAGGACAGTGAAGAGGTTGGA
2

Moving on to TAGCCTAGGTCATTCAGGCGCCAGTATAGAAAGC
2.37

Moving on to CGTCCAAGGTCAATGCGAGGTCAGTGAAAGCATT
4.98

Moving on to CATACAGGGTAAGCTAGGCCAGAGTAGGGACGGC
-0.433

Moving on to TCGAGTAGGTTACGGCGGCATTCAGGGATGAAGA
1.73

Moving on to CACACTAGGTCAAGAGGTCAAAGTCCGCTTCCCG
7.85

Moving on to TCATATAGGTAATCAGGTGAAAGTCCGTAAGTTA
4.24

Moving on to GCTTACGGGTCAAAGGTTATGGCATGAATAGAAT
9.38

Moving on to CAAACTAGGTCACCGGAAGGTCATAGTCCGCATG
7.81
